Record form. Attribute: growth. Fill in for each entry.
Test system: OVCAR-5 ovarian
TEST_NAME: NCI-60 one-dose screen, 48 h (100 = growth as untreated, 0 = no growth, -100 = all killed)
CONDITION_DESCRIPTION: 10 µM unless noted
Compounds without any hit were thinned out: in the full panel of roughly 83,000, 20% have a hit.
One number for each entry, in %.

Record excerpt, results attached:
INSERT INTO assay_data (compound, recorded_result) VALUES
  ('O=c1oc2ccc(-c3ccc(F)cc3F)cc2c(=O)n1-c1ccc(Cl)c(C(F)(F)F)c1', 74.8),
  ('O=c1oc2ccc(Br)cc2c(=O)n1-c1ccc(Br)cc1F', 18.8),
  ('C#CCn1cc(C=C2C(=O)N(C)C(=O)N(C)C2=O)c2cc(Cl)ccc21', 108),
  ('CCOC(=O)C1(Cc2ccccc2)CCN(Cc2cccc(OC)c2O)CC1', 42.4);

Below is a list of compounds. For each, state its recorded growth.
1. Cc1ccc(S(=O)(=O)c2c(COC(=O)c3cccc(C)c3)c(-c3ccccc3)nn2C)cc1
2. Clc1ccc(COc2ccc(Nc3ncnc4onc(-c5ccccc5)c34)cc2)cc1
3. COc1cc(C(C)n2cc(-c3ccccc3)nn2)ccc1OC1CCCCC1 (centres undefined)
4. O=C(Nc1ccc(Cl)cc1F)c1cc(F)ccc1O

Reply text:
115
92.8
92.6
27.8

Inquiry: Short answer please: growth, OVCAR-5 ovarian, entry `COc1ccc(Nc2nc(N/N=C/c3ccc(O)cc3)nc(Nc3ccc([N+](=O)[O-])cc3)n2)cc1`
Reply text: 109

====

Record form. Attribute: growth. Fill in for each entry.
Test system: CCRF-CEM leukemia
TEST_NAME: NCI-60 one-dose screen, 48 h (100 = growth as untreated, 0 = no growth, -100 = all killed)
CONDITION_DESCRIPTION: 10 µM unless noted
Description: Growth inhibition of the CCRF-CEM human tumor cell line is measured as a screen for anti-cancer activity. Cells are grown in 96 well plates and exposed to the test compound for 48 hours. Compounds are tested at a single concentration, which is 10^-5 M for most compounds. The reported endpoint is percent growth (GI% or GIPRCNT), where numbers from 0 - 100% represent growth inhibition, and numbers from -100% - 0 represent cell death. For example, a value of 40 represents 60% growth inhibition. […]
Compounds without any hit were thinned out: in the full panel of roughly 83,000, 20% have a hit.
Give bare numbers, in %.

INSERT INTO assay_data (compound, unit_of_measure, recorded_result) VALUES
  ('Oc1ccc(-c2nc(-c3ccc4oc5ccc(-c6[nH]c(-c7ccc(O)cc7)nc6-c6ccccc6)cc5c4c3)c(-c3ccccc3)[nH]2)cc1', '%', 43.9),
  ('COc1cccc2c(=O)c3c(sc12)c(NCCCNCCO)nc1ccccc13', '%', 29.2),
  ('CCCN1CCN(c2ccc3nc(-c4ccc5nc(-c6cc(OC)ccc6OC)[nH]c5c4)[nH]c3c2)CC1', '%', 3.98);

Below is a list of compounds. For each, state its recorded growth.
1. COC(=O)/C(CCC=C(C)C)=C1\[C@@H](OC(C)=O)C[C@@]2(C)[C@H]1C[C@@H](O)[C@H]1[C@@]3(C)CC[C@H](NC(=O)c4cnccn4)[C@@H](C)[C@@H]3CC[C@@]12C
2. COc1nc2c(c(=O)n1C)N=C1c3ccccc3C(=O)C1C(c1ccccc1)N2 (centres undefined)
3. NC(CCl)=NCCC[C@H](N)C(=O)O

Reply text:
1: 103; 2: 103; 3: 94.6
